molecular target: human Cereblon WT GST-tagged protein (Homo sapiens); construct: purchased CISBIO 64BDCRBNPEH; assay: CRBN-binding affinity, HTRF (CEREBLON BINDING kit); conditions: CRBN binding, HTRF, 3 hours at room temperature; read-out: HTRF IC50
Sequence (Q96SW2 whole entry): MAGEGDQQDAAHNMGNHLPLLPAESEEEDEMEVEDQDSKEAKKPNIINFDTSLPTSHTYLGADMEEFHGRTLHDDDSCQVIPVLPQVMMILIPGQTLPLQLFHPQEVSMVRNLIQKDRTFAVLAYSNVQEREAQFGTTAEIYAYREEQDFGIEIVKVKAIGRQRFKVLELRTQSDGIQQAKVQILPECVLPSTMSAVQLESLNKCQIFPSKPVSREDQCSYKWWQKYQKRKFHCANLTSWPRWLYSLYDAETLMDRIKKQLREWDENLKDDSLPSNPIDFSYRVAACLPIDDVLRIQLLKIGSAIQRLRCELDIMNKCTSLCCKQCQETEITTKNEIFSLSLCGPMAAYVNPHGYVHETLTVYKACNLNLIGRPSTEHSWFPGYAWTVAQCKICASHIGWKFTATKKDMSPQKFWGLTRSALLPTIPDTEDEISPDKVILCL
pIC50: −log10 of the molar value.
Parameter pIC50: see the listing below.

[
  {
    "molecule": "O=C1CCC(N2Cc3cc(CN4CCC(c5c[nH]c6cc(F)ccc56)CC4)ccc3C2=S)C(=O)N1 (stereo not shown)",
    "pIC50": "> 7.00"
  },
  {
    "molecule": "O=C1CCC(N2Cc3c(CO)cccc3C2=S)C(=O)N1 (stereo not shown)",
    "pIC50": "> 7.00"
  },
  {
    "molecule": "O=C1CCC(N2Cc3cc(CN4CC=C(c5cccc(Cl)c5Cl)CC4)ccc3C2=S)C(=O)N1 (stereo not shown)",
    "pIC50": "6.30 to 7.00"
  },
  {
    "molecule": "Cn1cc(C2=CCN(Cc3ccc4c(c3)CN(C3CCC(=O)NC3=O)C4=S)CC2)c2ccc(F)cc21 (stereo not shown)",
    "pIC50": "6.30 to 7.00"
  }
]
